Taken from patent US11286268B1.

Consider the following compounds; for each one, report its log10 of IC50.
- TARGET_SYSTEM: recombinant eIF4E (Homo sapiens (Human), UniProt P06730)
- Sequence (P06730 whole entry): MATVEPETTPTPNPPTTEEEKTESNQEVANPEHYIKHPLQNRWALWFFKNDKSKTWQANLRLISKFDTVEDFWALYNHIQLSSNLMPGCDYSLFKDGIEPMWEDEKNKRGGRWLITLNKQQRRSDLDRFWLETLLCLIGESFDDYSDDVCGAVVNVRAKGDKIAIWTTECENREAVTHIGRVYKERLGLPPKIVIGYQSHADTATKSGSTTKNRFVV
- PROCEDURE_SUMMARY: Fluorescence polarization competition assay for eIF4E binding potency
- DETAILS: inhibition of eIF4E/EDA-m7GDP-ATTO-550 binding by 50%; Table 4B calculated values; read-out: IC50
- Description: Compounds were screened for eIF4E binding potency using a fluorescence polarization competition assay. All binding reactions were performed in fluorescence polarization buffer (FPB) containing 20 mM Tris pH 7.5, 100 mM NaCl, 1 mM DTT, and 0.02% Tween-20. Final binding reactions contained 75 nM recombinant eIF4E (Beryllium, custom order), 20 nM EDA-m^7GDP-ATTO-550 (Jena Bioscience, NU-827-550) and varying concentrations of the inhibitory compound of interest. […]
Parameter value (number): base-10 log of IC50 in nM.

The value of log10 of IC50 measured for the compound Cc1cc(-c2cc(Cl)ccc2OCCn2c(C)nc3cc(C(F)(F)F)cc(C#N)c3c2=O)c2csc(C(=O)O)c2n1 turned out to be 1.93

Measured log10 of IC50, Cc1nc2cc(OC(F)(F)F)cc(C#N)c2c(=O)n1CCOc1ccc(Cl)cc1-c1ccnc2c(C(=O)O)csc12 : 1.04

Summary for this compound, Cc1nc2cc(C(F)(F)F)c(N3CCN(C)CC3)c(C#N)c2c(=O)n1CC#Cc1ccc(Cl)cc1-c1cccc(C(=O)O)c1 : log10 of IC50 is 1.15

Lab note: CCc1ccc(-c2c(C(F)(F)F)cc3nc(C)n(CCOc4ccc(Cl)cc4-c4cc(C)nc5c(C(=O)O)csc45)c(=O)c3c2C#N)cn1 gave log10 of IC50 of 0.92

Entry under test: Cc1nc2cnc(N3CCC4(CC3)CN(CC(F)F)C4)c(C#N)c2c(=O)n1CC#Cc1ccc(Cl)cc1-c1ccnc2c(C(=O)O)csc12 . Its log10 of IC50 was 1.23

For record Cc1nc2cc(C(F)(F)F)cc(C#N)c2c(=O)n1CCOc1ccc(Cl)cc1-c1cccc(C(=O)O)c1C#N the listed log10 of IC50 is 1.57

// sample COCc1ncc(C#N)c2c(=O)n(CCOc3ccc(Cl)cc3-c3ccc(C)c4c(C(=O)O)csc34)c(C)nc12 , its log10 of IC50 was 1.47

# log10 of IC50 of Cc1nc2cccc(C#N)c2c(=O)n1CCOc1ccc(Cl)cc1-c1cccc(C(=O)O)c1 = 1.65

Entry Cc1cc(-c2c(Cl)cc3nc(C)n(CCOc4ccc(Cl)cc4-c4cc(C)nc5c(C(=O)O)csc45)c(=O)c3c2C#N)cc(C)n1 — recorded log10 of IC50 = 1.26

Per the records, this compound ( Cc1cc(-c2c(F)cc3nc(C)n(CCOc4ccc(Cl)cc4-c4cc(C)nc5c(C(=O)O)csc45)c(=O)c3c2C#N)cc(C)n1 ) has log10 of IC50 equal to 1.25

Cc1nc2cc(C(F)(F)F)cc(C#N)c2c(=O)n1CCOc1ccc(Cl)cc1N1CCC(C(=O)O)CC1 yielded log10 of IC50 of 3.16

Measured log10 of IC50, Cc1cc(-c2cc(Cl)ccc2OCCn2c(C)nc3cnc(N4CCC(F)(F)CC4)c(C#N)c3c2=O)c2scc(C(=O)O)c2n1 : 1.59

Value of measured log10 of IC50 for the entry Cc1cc(-c2cc(Cl)ccc2OCCn2c(C)nc3cc(C(F)(F)F)c(-c4ncccc4F)c(C#N)c3c2=O)c2scc(C(=O)O)c2n1 : 1.84
